# Test system: Escherichia coli TOP10;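 note: peptides expressed intracellularly from a pBAD plasmid library in pooled LB shake-flask culture, induced with 0.3% L-arabinose, DNA abundance read by NGS, three biological replicates, DESeq2 with apeglm shrinkage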
# assay.comment: shrunken log2 fold change of peptide-encoding DNA abundance (4.5 h post-induction vs induction); higher = less antimicrobial activity (less host growth inhibition)
# recorded.conditions: time post-induction: 4.5 h; library: site-saturation at positions 5, 18, 19, 20
// thresholds for shrunken log2 fold change classes: low group: < -0.2; middle group: ≥ -0.2 and < 0.1; high group: ≥ 0.1

Known results for sequences:
residue.sequence	assay.system	assigned.category
RRIRYRPPRLPRPRPRPHTPPRP	Escherichia coli TOP10	low group
RRIRGRPPRLPRPRPRPKLLPRP	Escherichia coli TOP10	high group
RRIRPRPPRLPRPRPRPQTWPRP	Escherichia coli TOP10	low group
RRIRRRPPRLPRPRPRPARSPRP	Escherichia coli TOP10	high group
RRIRCRPPRLPRPRPRPEPTPRP	Escherichia coli TOP10	high group

Into which bin does this sequence go? RRIRPRPPRLPRPRPRPGCYPRP
high group

Band for RRIRWRPPRLPRPRPRPGDTPRP ?
middle group

Which class is correct for the following sequence? RRIRPRPPRLPRPRPRPPHNPRP
high group

Which shrunken log2 fold change category applies to RRIRYRPPRLPRPRPRPRVSPRP here?
low group

Using the reported shrunken log2 fold change, which band applies to RRIRDRPPRLPRPRPRPQELPRP ?
low group

Into which bin does this sequence go? RRIRRRPPRLPRPRPRPMWFPRP
middle group

Which class does RRIRRRPPRLPRPRPRPMRFPRP fall in?
high group

Which category does the recorded shrunken log2 fold change put RRIRYRPPRLPRPRPRPDSHPRP in?
low group

Form: Item = RRIRERPPRLPRPRPRPKSHPRP ; Class = ?
low group

The origin of these recorded values is the supplement of paper PMC9112550.
